experimental target: Radiation Leukemia Virus reverse transcriptase (Radiation murine leukemia virus, UniProt P11227)
Construct: the reverse transcriptase of Radiation Leukemia Virus; endogenous in cells
assay info: Radiation Leukemia Virus reverse transcriptase assay, supernatants from infected AQR cells (Examples 4 and 9)
Type: biochemical
conditions used: 0.5 h; 0.05 micrograms; Table VIII
readout: inhibition at 50 ng
For clarity, give the value followed by its unit.

Known inhibition at 50 ng results, listed for orientation:
molecule | readout | value
O=c1c2ccccc2c2c3c1c(O)cc(O)c3c1c(O)cc(O)c3c(=O)c4ccccc4c2c31 [WIS-2, Tetrahydroxy-dibenzoperylene-dione] | inhibition at 50 ng | 41.6%
O=c1c2c(O)ccc3c4ccc(O)c5c(=O)c6c(O)cc(O)c7c8c(O)cc(O)c1c8c(c23)c(c54)c67 | inhibition at 50 ng | 90.4%
CC(=O)Oc1cc(O)c2c(=O)c3c(O)cc(C)c4c5c(C)cc(O)c6c(=O)c7c(O)cc(OC(C)=O)c8c1c2c(c34)c(c65)c78 [WIS-6, hypericin diacetate] | inhibition at 50 ng | 76.7%

Q. Find the recorded inhibition at 50 ng belonging to CC(=O)Oc1cc(C)c2c3c(C)cc(OC(C)=O)c4cc5c(OC(C)=O)cc(OC(C)=O)c6c7c(OC(C)=O)cc(OC(C)=O)c8cc1c2c(c87)c(c43)c56 [WIS-4, desoxohypericinhexaacetate] and report it.
A. 79.9%

Q. Requested read-out: inhibition at 50 ng. Entry: Cc1cc(O)c2cc3c(O)cc(O)c4c5c(O)cc(O)c6cc7c(O)cc(C)c8c1c2c(c34)c(c78)c65
A. 76.4%

* * *

Test system: Friend Leukemia Virus
assay info: Inhibition of Friend Leukemia Virus-induced splenomegaly in mice, compounds intraperitoneally 24 hours after virus (Example 1(a))
Assay type: in vivo, BALB/c mice
conditions used: Mus musculus, ip, 24 h, read-out: Average % Inhibition, 100 micrograms i.p. once, 24 h after FV; Table II
Use 40% as the dividing line for inhibition in vivo at 0.1 mg, with the line itself on the Fulfilled side and lower values as Not fulfilled.

compound | class assignment
c1ccc2c(c1)ccc1ccc3ccc4ccc5ccccc5c4c3c12 | Not fulfilled
Cc1cc2ccc3ccc4ccccc4c3c2c2c1ccc1ccccc12 | Fulfilled
CC1=CC2CCc3ccc4ccccc4c3C2c2c1ccc1ccccc21 (centres unmarked) | Fulfilled

In the following, a different compound is considered.
Q. Hi, just wondering whether c1cc2ccc3ccc4ccc5ccc6ccc1c1c2c3c4c5c61 shows inhibition in vivo at 0.1 mg of 40% or higher.
A. Fulfilled

* * *

Test system: Friend Leukemia Virus
assay info: Inhibition of Friend Leukemia Virus-induced splenomegaly in mice, compounds intraperitoneally 24 hours after virus (Example 1(a))
Assay type: in vivo, BALB/c mice
Parameters: unit not given here
conditions used: dose 2 × 100 (micrograms) i.p.; Table III
readout: Average Spleen Weight
# print the numeric value only

compound | experimental target | value
O=C1c2ccc(O)cc2C(=O)c2ccc(O)cc21 [Compound 32, Anthraflavic acid] | Friend Leukemia Virus | 0.9325
O=C1c2ccccc2C(=O)c2cc(CO)ccc21 [Compound 35, 2-(hydroxymethyl)-anthraquinone] | Friend Leukemia Virus | 0.6575
O=C1C(c2ccccc2)=C(c2ccccc2)C(c2ccccc2)=C1c1ccccc1 [Compound 24, Tetraphenylcyclo pentadienone] | Friend Leukemia Virus | 1.2437

// next item, Average Spleen Weight requested
Q. # get_value(readout='Average Spleen Weight', item= c1ccc2c(c1)ccc1ccccc12 [Compound 17, Phenanthrene] )
A. 1.0683

* * *

experimental target: Radiation Leukemia Virus reverse transcriptase (Radiation murine leukemia virus, UniProt P11227)
Construct: the reverse transcriptase of Radiation Leukemia Virus; endogenous in cells
assay info: Radiation Leukemia Virus reverse transcriptase assay, supernatants from infected AQR cells (Examples 4 and 9)
Type: biochemical
conditions used: 0.5 h; 5 micrograms; Table VIII
readout: inhibition at 0.005 mg
I'd appreciate it if you wrote the number followed by its unit.

Examples with answers:
molecule | inhibition at 0.005 mg
CC(=O)Oc1cc(C)c2c3c(C)cc(OC(C)=O)c4cc5c(OC(C)=O)cc(OC(C)=O)c6c7c(OC(C)=O)cc(OC(C)=O)c8cc1c2c(c87)c(c43)c56 [WIS-4, desoxohypericinhexaacetate] | 79.9%
O=c1c2c(O)ccc3c4ccc(O)c5c(=O)c6c(O)cc(O)c7c8c(O)cc(O)c1c8c(c23)c(c54)c67 | 90.6%
CC(=O)Oc1cc(O)c2c(=O)c3c(O)cc(C)c4c5c(C)cc(O)c6c(=O)c7c(O)cc(OC(C)=O)c8c1c2c(c34)c(c65)c78 [WIS-6, hypericin diacetate] | 88.9%
Cc1cc(O)c2cc3c(O)cc(O)c4c5c(O)cc(O)c6cc7c(O)cc(C)c8c1c2c(c34)c(c78)c65 | 71%

Shift focus to the following entry.
Q. For the molecule shown here, O=c1c2ccccc2c2c3c1c(O)cc(O)c3c1c(O)cc(O)c3c(=O)c4ccccc4c2c31 [WIS-2, Tetrahydroxy-dibenzoperylene-dione] , give the reported inhibition at 0.005 mg.
A. 99.5%

* * *

// reported Average CPM for each item listed
experimental target: Radiation Leukemia Virus reverse transcriptase (Radiation murine leukemia virus)
Construct: the reverse transcriptase of Radiation Leukemia Virus; endogenous in cells
assay info: Radiation Leukemia Virus reverse transcriptase assay, supernatants from infected AQR cells (Examples 4 and 9)
Type: biochemical
conditions used: 0.1 micrograms; Table VIII

compound | value
CC(=O)Oc1cc(O)c2c(=O)c3c(O)cc(C)c4c5c(C)cc(O)c6c(=O)c7c(O)cc(OC(C)=O)c8c1c2c(c34)c(c65)c78 [WIS-6, hypericin diacetate] | 389,388 CPM
O=c1c2c(O)ccc3c4ccc(O)c5c(=O)c6c(O)cc(O)c7c8c(O)cc(O)c1c8c(c23)c(c54)c67 | 20,893 CPM
CC(=O)Oc1cc(C)c2c3c(C)cc(OC(C)=O)c4cc5c(OC(C)=O)cc(OC(C)=O)c6c7c(OC(C)=O)cc(OC(C)=O)c8cc1c2c(c87)c(c43)c56 [WIS-4, desoxohypericinhexaacetate] | 144,512 CPM

Now look at this entry.
Q. For Cc1cc(O)c2cc3c(O)cc(O)c4c5c(O)cc(O)c6cc7c(O)cc(C)c8c1c2c(c34)c(c78)c65 , what is its reported Average CPM?
A. 171,635 CPM

* * *

System: Friend Virus
assay info: Friend Virus-induced splenomegaly, WIS compounds (Example 8)
Type: in vivo, mice
conditions used: 150 micrograms; Table VII
So basically, if Average % Inhibition comes in under 50% it's Satisfied, and if it's 50% or more it's Not satisfied.

These solved cases illustrate the format of a correct answer.
molecule | class assignment
O=c1c2ccccc2c2c3c1c(O)cc(O)c3c1c(O)cc(O)c3c(=O)c4ccccc4c2c31 [WIS-2, Tetrahydroxy-dibenzoperylene-dione] | Not satisfied
CC(=O)Oc1cc(O)c2c(=O)c3c(O)cc(C)c4c5c(C)cc(O)c6c(=O)c7c(O)cc(OC(C)=O)c8c1c2c(c34)c(c65)c78 [WIS-6, hypericin diacetate] | Satisfied
CC(=O)Oc1cc(C)c2c3c(C)cc(OC(C)=O)c4cc5c(OC(C)=O)cc(OC(C)=O)c6c7c(OC(C)=O)cc(OC(C)=O)c8cc1c2c(c87)c(c43)c56 [WIS-4, desoxohypericinhexaacetate] | Satisfied
Cc1cc(O)c2cc3c(O)cc(O)c4c5c(O)cc(O)c6cc7c(O)cc(C)c8c1c2c(c34)c(c78)c65 | Satisfied

Kindly review the next molecule as well.
Q. Lab note: Average % Inhibition threshold 50%. Does this molecule come in strictly under it? O=c1c2c(O)ccc3c4ccc(O)c5c(=O)c6c(O)cc(O)c7c8c(O)cc(O)c1c8c(c23)c(c54)c67
A. Not satisfied

* * *

Test system: Friend Leukemia Virus
assay info: Inhibition of Friend Leukemia Virus-induced splenomegaly in mice, compounds intraperitoneally 24 hours after virus (Example 1(a))
Type: in vivo, BALB/c mice
conditions used: pooled over 50, 100, 200, 2 × 100 micrograms; Table III
readout: Pooled Average % Inhibition (%)
Field format: number, assumed %, no unit text.

molecule | Pooled Average % Inhibition, %
c1ccc2c(c1)ccc1ccccc12 | 26
O=c1c2ccccc2oc2ccccc12 | 59

Now for another entry.
Q. # query: Pooled Average % Inhibition of entry C1CCc2c(c3c(c4c2CCCC4)CCCC3)C1 [Compound 16, Dodecahydrotriphenylene]
A. 24

* * *

Recorded measurements of Average Spleen Weight, one per entry
Test system: Friend Leukemia Virus
assay info: Inhibition of Friend Leukemia Virus-induced splenomegaly in mice, compounds intraperitoneally 24 hours after virus (Example 1(a))
Format: in vivo, BALB/c mice
conditions used: dose 2 × 100 (micrograms) i.p.; Table III
The answer should be written as a number, with no unit following it.

Worked examples, 6 compounds total:
compound | Average Spleen Weight
c1cc2cccc3c4cccc5cccc(c(c1)c23)c54 | 1.4342
C1CCc2c(c3c(c4c2CCCC4)CCCC3)C1 [Compound 16, Dodecahydrotriphenylene] | 1.1867
O=c1c2ccccc2oc2ccccc12 | 0.9003
Cc1ccc2cc3ccccc3cc2c1 | 1.1758
C=Cc1c2ccccc2cc2ccccc12 | 1.3747
c1cc2c3c(ccc4c3c1CCC4)CCC2 [Compound 23, 1,2,3,6,7,8-Hexahydropyrene] | 1.1281

Q. Param item = O=C1c2ccccc2C(=C2c3ccccc3C(=O)c3ccccc32)c2ccccc21 ; retrieve measured Average Spleen Weight.
A. 1.1353

Q. Please report the recorded Average Spleen Weight for Cc1cc(O)c2c(c1)C(=O)c1cc(O)cc(O)c1C2=O .
A. 1.2834

Q. Any idea what Average Spleen Weight was measured for c1ccc(-c2c3ccccc3c(-c3ccccc3)c3ccccc23)cc1 ?
A. 1.4120

Q. Name the recorded Average Spleen Weight for O=C1c2ccccc2C(=O)C1c1ccccc1 .
A. 0.9127

Q. Consider the compound c1ccc2c(c1)CCc1ccccc1-2 and give its measured Average Spleen Weight.
A. 1.5023

Q. Fill blank: measured Average Spleen Weight of the compound c1ccc(C2=C(c3ccccc3)C(c3ccccc3)=C(c3ccccc3)C2)cc1 is ____.
A. 1.5966

Q. Data request, read-out Average Spleen Weight, for C1=CCC2=C(C1)CC1=C(CC=CC1)C2 [Compound 21, 1,4,5,8,9,10-Hexahydroanthracene]
A. 1.2624
